Recorded inhibition by entry
Assay text: SF-1 AF-2 mutant transactivation artefacts – cell-based, luminescence, counter-screen for DAX1 inhibitor project (AID 652136);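 further: 0% = DAX-1 transfected cells with DMSO and 100% = cells without DAX-1 with DMSO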
Reported conditions: HEK293 StAR-luciferase, SF-1 AF2 mutant, at 6.8 µM, active compounds read high
About 1,900 (79%) of roughly 2,400 compounds were called active. So high a share suggests a set chosen from earlier hits. Not all results are given here.

Compound: COc1cc(OC)c(C(=O)NNC(=O)c2ccc(NS(=O)(=O)c3cccs3)cc2)cc1OC
inhibition, %: -0.43

Compound: O=C(NCCc1c[nH]c2ccccc12)c1cc2ccccc2oc1=O
inhibition, %: 7.29

Compound: Cc1cc(C)c(C)c(S(=O)(=O)N2CCN(C(=O)c3ccc4c(=O)n5c(nc4c3)CCC5)CC2)c1C
inhibition, %: -0.34

Compound: CC1CCCN(c2ccc(C(=O)NCCc3ccccc3)cn2)C1 (configuration not stated)
inhibition, %: 3.59

Compound: CCOc1ccc(S(=O)(=O)Nc2cccc(C(=O)NCC3(N4CCCCC4)CCCCC3)c2)cc1
inhibition, %: 5.11

Compound: OC(c1ccccc1)c1nc(-c2cnc3ccccc3c2)cs1 (configuration not stated)
inhibition, %: 6.87

Compound: CCN(c1ccccc1)S(=O)(=O)c1ccc(OCC(=O)N2CCCC2)cc1
inhibition, %: 1.13
